# Tested on: T. vaginalis
# ASSAY_PROTOCOL: Trichomonas resorufin assay
# Format: cell-based
# CONDITION: Trichomonas vaginalis, read-out: IC50 T. vaginalis
pIC50: −log10 of the molar value.
// reported pIC50 for each item listed

Reference set, count: 4
Ask | Report measured pIC50; entry is [H]/N=C(\CCNC(=O)c1cc(NC(=O)c2cc(NC(=O)c3ccc(C=Cc4ccc(C#N)cc4)cc3)cn2C)cn1C)NCC [Ia16]
Reply | 4.30 to 5.30

Ask | Report measured pIC50; entry is [H]/N=C(\CCNC(=O)c1cc(NC(=O)c2cc(NC(=O)c3ccc(C=Cc4ccc5nonc5c4)cc3)cn2C)cn1C)N1CCCCC1 [Ib2]
Reply | > 6.00

Ask | Report measured pIC50; entry is CCCC/N=C(\CCNC(=O)c1cc(NC(=O)c2cc(NC(=O)c3ccc(/C=C/c4cnc5ccccc5c4)cc3)cn2C)cn1C)NCCCC [Ia38]
Reply | 4.30 to 5.30

Ask | Report measured pIC50; entry is COc1ccc(/C=C/c2ccc(C(=O)Nc3cc(C(=O)Nc4cc(C(=O)NCCC(=N)NC(C)C)n(C)c4)n(C)c3)cc2)cc1 [Ia18]
Reply | 4.30 to 5.30

Others:
Ask | Report measured pIC50; entry is COCCOCCOCCNC(=O)c1cc(NC(=O)c2cc(NC(=O)c3ccc(/C=C/c4cnc5ccccc5c4)cc3)cn2C)cn1C [IVa8]
Reply | 4.30 to 5.30

Ask | Report measured pIC50; entry is COc1ccc(/C=C/c2ccc(C(=O)Nc3cc(C(=O)Nc4cc(C(=O)NCCC(=N)NC(C)C)n(C)c4)n(C)c3)cn2)cc1 [Ia15]
Reply | < 4.30

Ask | Report measured pIC50; entry is CCCCNC(=O)c1cc(NC(=O)c2cc(NC(=O)c3ccc(/C=C/c4cnc5ccccc5c4)cc3)cn2C)cn1C [IVa5]
Reply | 5.30 to 6.00
